These data points were gathered from patent US11059795B2.

# microsomal CLint at 1 μM values compiled below
Assay: Microsomal stability assay, mouse liver microsomes
Type: in vitro ADME
Details: mouse, liver microsomes, pH 7.4, mouse liver microsomes, 1 μM compound, 0.5 mg/mL protein, 37° C.; read-out: MLM +30/− NADPH: Clint (μL/min/mg protein)
value-type: microsomal CLint at 1 μM

compound | value-type | observed-value
CC(C)(c1ccc(OCc2nc(NS(C)(=O)=O)cs2)cc1)c1cc(Cl)c(OCCCl)c(C#N)c1 | microsomal CLint at 1 μM | 12 to 48 µL/min/mg
CC(C)(c1ccc(OCc2ncc(S(C)(=O)=O)[nH]2)cc1)c1cc(Cl)c(OCCCl)c(C#N)c1 | microsomal CLint at 1 μM | 12 to 48 µL/min/mg
CC(C)(c1ccc(OCC2COC(NS(C)(=O)=O)=N2)cc1)c1ccc(OCCCl)c(C#N)c1 (stereo not drawn) | microsomal CLint at 1 μM | < 12 µL/min/mg
CC(C)(c1ccc(NC(=O)c2coc(NS(C)(=O)=O)n2)cc1)c1cc(Cl)c(OCCCl)c(Cl)c1 | microsomal CLint at 1 μM | < 12 µL/min/mg
CC(Oc1ccc(C(C)(C)c2cc(Cl)c(OCCCl)c(Cl)c2)cc1)c1[nH]cnc1S(C)(=O)=O (stereo not drawn) | microsomal CLint at 1 μM | 12 to 48 µL/min/mg
CC(C)(c1ccc(OCc2ocnc2C(N)=O)cc1)c1cc(Cl)c(OCCCl)c(Cl)c1 | microsomal CLint at 1 μM | < 12 µL/min/mg
CC(C)(c1ccc(OCc2cncc(NS(C)(=O)=O)n2)cc1)c1cc(Cl)c(OCCCl)c(C#N)c1 | microsomal CLint at 1 μM | 12 to 48 µL/min/mg
CC(C)(c1ccc(OCc2nccc(NS(C)(=O)=O)n2)cc1)c1cc(Cl)c(OCCCl)c(C#N)c1 | microsomal CLint at 1 μM | < 12 µL/min/mg
CC(Oc1ccc(C(C)(C)c2cc(Cl)c(OCCCl)c(C#N)c2)cc1)c1ncc(S(C)(=O)=O)o1 (stereo not drawn) | microsomal CLint at 1 μM | ≥ 48 µL/min/mg
CC(Oc1ccc(C(C)(C)c2cc(Cl)c(OCCCl)c(C#N)c2)cc1)c1cnc(NS(C)(=O)=O)o1 (stereo not drawn) | microsomal CLint at 1 μM | 12 to 48 µL/min/mg
CC(C)(c1ccc(OCc2cccc(NS(C)(=O)=O)n2)cc1)c1cc(Cl)c(OCCCl)c(C#N)c1 | microsomal CLint at 1 μM | < 12 µL/min/mg
CC(C)(c1ccc(OCc2cncnc2NS(C)(=O)=O)cc1)c1cc(Cl)c(OCCCl)c(C#N)c1 | microsomal CLint at 1 μM | < 12 µL/min/mg
CC(C)(C)C(=O)N(c1ccc(OCc2coc(NS(C)(=O)=O)n2)cc1)c1cc(Cl)c(OCCCl)c(C#N)c1 | microsomal CLint at 1 μM | 12 to 48 µL/min/mg
CC(C)(c1ccc(C(=O)Nc2ccnc(N)n2)cc1)c1cc(Cl)c(OCCCl)c(Cl)c1 | microsomal CLint at 1 μM | < 12 µL/min/mg
Cc1cc(C(C)(C)c2ccc(CN3C(=O)N(S(C)(=O)=O)C(C)(C)C3=O)c(C(N)=O)c2)cc(Cl)c1OCCCl | microsomal CLint at 1 μM | 12 to 48 µL/min/mg
